Test system: HCoV-229E
Parameters: species or system Huh-7; HTS, protection from HCoV-229E induced cell death, luminescent cell viability (CellCounting-Lite 2.0), inhibition rate
Conditions: 24 h, 10 µM; inhibitor
Result type: 229E Inhibition rate

1. C[C@H]1CCC[C@@H](O)CCC/C=C/c2cc(O)cc(O)c2C(=O)O1 [β-Zearalenol]: 60.6
2. CC[C@@H]1/C=C(\C)C[C@H](C)C[C@H](OC)[C@H]2O[C@@](O)(C(=O)C(=O)N3CCCC[C@H]3C(=O)O[C@H](/C(C)=C/[C@@H]3CC[C@@H](O)[C@H](OC)C3)[C@H](C)[C@@H](O)CC1=O)[C@H](C)C[C@@H]2OC [Ascomycin]: 17.9
3. CCC(=O)O[C@@H]1CC(=O)O[C@H](C)C/C=C/C=C/[C@H](O)[C@H](C)C[C@H](CC=O)[C@H](O[C@@H]2O[C@H](C)[C@@H](O[C@H]3C[C@@](C)(O)[C@@H](OC(=O)CC)[C@H](C)O3)[C@H](N(C)C)[C@H]2O)[C@H]1OC [Midecamycin]: 12.9
4. CC[C@@]1(O)C(=O)OCc2c1cc1n(c2=O)Cc2cc3cc(O)ccc3nc2-1 [(S)-10-Hydroxycamptothecin]: 18.7
